Entries and their measured Mean maximum fluorescence intensity (Top MFI) follow.
# TARGET: murine CLDN18.2 (mCLDN18.2) (murine) (UniProt P56857)
# ASSAY PROTOCOL: FACS, HEK293-mCLDN18.2 cells
Your answer should be a plain number; it is taken to be in MFI.

Some binders with recorded Mean maximum fluorescence intensity (Top MFI):
BINDER | ENDPOINT VALUE
hu299B2-S32A-3 (antibody, V domains shown, also called humanized antibody hu299B2-S32A) VH: QVQLVQSGAEVKKPGASVKVSCKASGYIFTNYWIHWVRQAPGQGLEWMGRIYPGTGNTYYNEKFTGRVTMTRDTSTSTVYMELSSLRSEDTAVYYCAREGYGKGNSMDYWGQGTTVTVSS VL: DIVMTQSPDSLAVSLGERVTMNCKSSQSLLNAGNQKNYLTWYQQKPGQPPKLLFYWASTRESGVPDRFSGSGSGTDFTLTISSVQAEDVAVYHCQNAYYYPYTFGGGTKLEIK | 103000
ch-40G7 (antibody, V domains shown, also called chimeric antibody of clone 40G7) VH: QVQLQQPGTELVKPGASVKLSCKASGYTFTNYWMHWVKQRPGHGLEWIGMIHPNSYSTNYNEKFRSKATLTVDKSSSTAYMQLSSLTSEDSAVYYCTRIYYGNAMDYWGQGTSVTVSS VL: DIVMTQSPSSLTVTAGERVTMSCKSSQSLFNSGNQKNYLTWYHQKPGQPPKLLIYWAFTRESGVPDRFTGSGSGTDFTLTIRSVQAEDLAVYYCQNDYSYPFTFGSGTKLEIK | 10000
ch-241F7 (antibody, V domains shown, also called chimeric antibody of clone 241F7) VH: EVQLQQSGPELEKPGASVKISCKASGYSFTAYNMNWVRQRNGKSLEWIGNIDPYYGGTNYNQKFKGKATLTVDKSSSTAYMQLKSLTSEDSAVYFCATVYYGNSLIYWGQGTLVTVSA VL: DIVMTQSPSSLTVTAGEKVTMSCKSSQSLLNSGNQKNYLTWYQQKPGQPPKLLIYWASTRESGVPDRFTGTGSGTDFTLTISSVQAEDLAVYYCQNNYFYPLTFGAGTQLELK | 10500

Ask: # return recorded Mean maximum fluorescence intensity (Top MFI) for input ch-48H1 (antibody, V domains shown, also called chimeric antibody of clone 48H1) VH: QVQLQQPGAELVKPGTSVKLSCKASGYIFTNYWTHWMKQRPGQGLEWIGMIHPNSGSSNYNEKFKSKATLTVDRSSSTVYMQLRRLTSEDSAVYYCTRIHYGNSMDYWGQGTSVTVSS VL: DIVMTQSPSSLTVTAGEKVTMSCKSSQSLFNSGNQKNYLTWYQQKPGQPPKLLIYWASTWESGVPDRFTGSGSGTDFTLTISSVQAEDLAVYYCQNAYSYPFTFGSGTKLEIK
Reply: 14800

Ask: Specify Mean maximum fluorescence intensity (Top MFI) for ch-59F9 (antibody, V domains shown, also called chimeric antibody of clone 59F9) VH: QVQLQQSGAELMKPGASVKLPCKASGYTLTGYWIEWLKQRPRHGLEWIGEILLGSGSIKYNVKFKDKATFTADTSSNTAYMQLNSLTTEDSAIYYCARKGLRGNSFDYWGQGTTLTVSS VL: DIVMTQSPSSLTVTAGEKVTMSCKSSQSLLNSGNQKSYLTWYQQKPGQPPKRLIYWASTRESGVPDRFTGSGSGTDFTLTISSVQAEDLAVYYCQNDYYYPFTFGSGTKLEIK and stop.
Reply: 11200

Ask: Answer with the recorded Mean maximum fluorescence intensity (Top MFI) for the binder listed here: ch-32G8 (antibody, V domains shown, also called chimeric antibody of clone 32G8) VH: EVHLQQSGPVLVKPGASVKMSCKASGYTFTDYHMNWVKQSHGKSLEWIGVINPYNGGIRYNQKFKGKATLTVDKSSSTAYMELNSLTSEDSAVYYCATIYYGNSFAYWGQGTLVTVSA VL: DIVMTQSPSSLTVTAGEKVTMSCKSSQSLLNSGNQKNYLTWYQQKPGQPPKLLIYWASTRESGVPDRFTGSGSGTDFTLTISSVQAEDLAVYYCQNNYIYPFTFGGGTKLEIR
Reply: 6870

Ask: Please look at this binder and report its Mean maximum fluorescence intensity (Top MFI): ch-43F5 (antibody, V domains shown, also called chimeric antibody of clone 43F5) VH: QVQLQQPGAELVKPGTSVKLSCKASGYTFTSYWTHWVKQRPGQGLEWIGMIHPNSGSSNYNEKFKSKATLTVDKSSSTAYMQLRRLTSEDSAVYYCTRIHYGNAMDYWGQGTSVTVSS VL: DIVMTQSPSSLTVTAGEKVTMTCKSSQSLLNSGNQKNYLTWYQQKPGQPPKLLIYWASTRESGVPDRFTGSGSGTDFTLTISSVQAEDLAIYYCQNDYSFPFTFGSGTKLEIK
Reply: 6090

Ask: Output Mean maximum fluorescence intensity (Top MFI) of hu299B2-S32A-4 (antibody, V domains shown, also called humanized antibody hu299B2-S32A) VH: QVQLVQSGAEVKKPGASVKVSCKTSGYIFTNYWIHWVRQAPGQGLEWMGRIYPGTGNTYYNEKFTGRVTLTADTSTSTVYMELSSLRSEDTAVYYCSREGYGKGNSMDYWGQGTTVTVSS VL: DIVMTQSPDSLAVSLGERATINCKSSQSLLNAGNQKNYLTWYQQKPGQPPKLLIYWASTRESGVPDRFSGSGSGTDFTLTISSLQAEDVAVYYCQNAYYYPYTFGGGTKLEIK
Reply: 84900

Ask: Identify measured Mean maximum fluorescence intensity (Top MFI) associated with ch-37G8 (antibody, V domains shown, also called chimeric antibody of clone 37G8) VH: EVQLQQSGPVLVKPGASVKMSCKASGYTFSDYHMNWVKQSHGKSLEWVGLINPYNGGIRFNQKFKGKATLTVDKSSSTAYMELNSLTSEDSAVYYCATIYYGNSFAYWGQGTLVTVSA VL: DIVMTQSPSSLTVTAGEKVTLTCKSGQSLLNSGNQKNYLTWYQQKPGQPPKLLIYWASTRESGVPDRFTGSGSGTDFTLTISGVQAEDLAVYYCQNDYFYPYTFGGGTKLEIK
Reply: 8930

Ask: Quickly give me recorded Mean maximum fluorescence intensity (Top MFI) for ch-39C8 (antibody, V domains shown, also called chimeric antibody of clone 39C8) VH: QVQLQQSGAGLVKPGASVKISCKASGYAFSSYWMIWVKQRPGKGLEWIGQIYPGDGDTNYNGKFKGKATLTADKSSSTAFMQLSSLTSEDSAVYFCTRIYYGNAFAYWGQGTLVTVSA VL: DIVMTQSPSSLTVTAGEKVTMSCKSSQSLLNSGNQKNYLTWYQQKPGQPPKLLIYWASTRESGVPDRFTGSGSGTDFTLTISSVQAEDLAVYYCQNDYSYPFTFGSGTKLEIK
Reply: 10600

Ask: Respond only with Mean maximum fluorescence intensity (Top MFI) recorded for ch-252F11 (antibody, V domains shown, also called chimeric antibody of clone 252F11) VH: EIQLVESGGGLVRPGGSLKLSCAASGFSFKNYVMSWVRQSPERRLEWVAEIRTGGDYTYYVDTVTGRFTISRDNAKNTLYLEMTSLRSEDTATYYCARVGYGNSLDYWGQGTTLTVSS VL: DIVMTQSPSSLTVTAGEKVTMSCKSSQSLLNSGNQKNYLTWYQQKPGQPPKLLIYWASTRESGVPDRFTGSGSGTDFTLTISSVQAEDLAVYSCQNNYFYPLTFGAGTELELK
Reply: 8980
